Below is a list of entries, each paired with its recorded inhibition value.
- target desc: UniProt:P63158
- Sequence (P63158 whole entry): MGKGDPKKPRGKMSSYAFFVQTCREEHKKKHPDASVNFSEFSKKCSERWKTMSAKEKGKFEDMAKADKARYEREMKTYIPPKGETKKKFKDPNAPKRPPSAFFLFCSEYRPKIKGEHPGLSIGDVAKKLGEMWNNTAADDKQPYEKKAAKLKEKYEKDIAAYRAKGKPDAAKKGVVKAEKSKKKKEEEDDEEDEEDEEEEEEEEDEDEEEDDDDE
- protocol description: Inhibition of HMGB1 translocation from nucleus to cytosol in LPS-stimulated mouse RAW264.7 cells assessed as inhibition of NO release at 10 uM measured after 24 hrs by Griess assay relative to control
Respond numerically; units are % and should not be typed.

Example entries begin here.
COc1cc2c(cc1OC)C1C(=CCn3c(=O)n(-c4ccccc4)c(=O)n31)C(C)(C)O2 (stereo not given) = 44
CC1(C)Oc2cc(O)ccc2C2C1=CCn1c(=O)n(-c3ccc(C(F)(F)F)cc3)c(=O)n12 (stereo not given) = 85
COc1ccc2c(c1)C1C(=CCn3c(=O)n(-c4ccccc4)c(=O)n31)C(C)(C)O2 (stereo not given) = 55
CC1(C)Oc2cc(F)ccc2C2C1=CCn1c(=O)n(-c3ccccc3)c(=O)n12 (stereo not given) = 79

API: the following record is the query input.
(Q) Find the recorded inhibition belonging to CC1(C)Oc2ccccc2C2C1=CCn1c(=O)n(-c3ccccc3)c(=O)n12 (stereo not given) and report it.
(A) 83
